target: CRTH2 (Homo sapiens, UniProt Q9Y5Y4); construct: polymorphonuclear cells (0.5 ml; 10^6/ml cells) in PBS containing 0.9 mM CaCl2 and 0.5 mM MgCl2; endogenous in cells; host or cells: polymorphonuclear cells (eosinophils gated by flow cytometry); assay: DPBS CD11b Antagonist Assay; type: cell-based; conditions: polymorphonuclear cells in PBS, eosinophil CD11b expression, challenge with 15R-Methyl-PGD2 (10 nM)
Sequence (Q9Y5Y4 whole entry): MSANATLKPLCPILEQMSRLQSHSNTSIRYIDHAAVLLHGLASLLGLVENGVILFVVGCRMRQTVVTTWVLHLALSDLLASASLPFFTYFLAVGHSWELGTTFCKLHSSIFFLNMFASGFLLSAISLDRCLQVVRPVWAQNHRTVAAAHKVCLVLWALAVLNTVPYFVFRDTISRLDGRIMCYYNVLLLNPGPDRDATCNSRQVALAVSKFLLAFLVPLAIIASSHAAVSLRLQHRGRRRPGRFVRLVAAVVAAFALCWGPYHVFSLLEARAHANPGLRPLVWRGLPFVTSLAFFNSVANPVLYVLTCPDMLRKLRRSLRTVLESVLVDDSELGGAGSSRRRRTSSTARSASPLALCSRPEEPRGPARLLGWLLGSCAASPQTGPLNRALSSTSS
Value Type: IC50

Some entries whose results are on file:
>>> reported_measurement("Cc1c(S(=O)(=O)N(C)c2ccccc2)c2c(n1CC(=O)O)CC(C)(C)CC2=O")
"> 500 nM"
>>> reported_measurement("Cc1c(Cc2ccccc2S(=O)(=O)N(C)C)c2c(n1CC(=O)O)CC(C)(C)CC2=O")
"< 5 nM"
>>> reported_measurement("CCOC(=O)Cn1c(C)c(Sc2ccc(C)cc2S(=O)(=O)N2CCCC2)c2c1CC(C)(C)CC2=O")
"100 to 500 nM"
>>> reported_measurement("Cc1c(Cc2ccccc2S(=O)(=O)c2cccs2)c2c(n1CC(=O)O)CC(C)(C)CC2=O")
"< 5 nM"

Reported IC50 for CRTH2 (Homo sapiens, UniProt Q9Y5Y4), given CCOC(=O)Cn1c(C)c(Sc2ccc(F)cc2S(=O)(=O)N2CCCC2)c2c1CC(C)(C)CC2=O ?
5 to 100 nM

Moving on to COC(=O)Cn1c(C)c(Cc2ccccc2S(=O)(=O)N2CCOCC2)c2c1CC(C)(C)CC2=O
5 to 100 nM

Moving on to Cc1c(Cc2ccccc2S(=O)(=O)N2CCOCC2)c2c(n1CC(=O)O)CCC(C)(C)C2
< 5 nM

Input Cc1c(Cc2ccccc2S(=O)(=O)C2CCCCC2)c2c(n1CC(=O)O)CC(C)(C)CC2=O
< 5 nM

Next compound: Cc1c(Cc2ccc(S(=O)(=O)N3CCOCC3)cc2)c2c(n1CC(=O)O)CCC(C)(C)C2
< 5 nM

What do you get for Cc1c(Cc2ccc(S(=O)(=O)N3CCOCC3)cc2)c2c(n1CC(=O)O)CCCC2 ?
< 5 nM

====

As shown below, each of these compounds has a reported ED50 value.
test system: DK-PGD2-induced systemic eosinophilia; experiment: DK-PGD2-Induced Systemic Eosinophilia in Rats; type: in vivo; conditions: Rattus norvegicus, Eosinophil; female Sprague-Dawley rats, oral dosing 30 min before intracardiac 10 μg DK-PGD2, blood eosinophils at 60 min

Reference set (3 entries):
>>> reported_measurement("Cc1c(Cc2ccccc2S(=O)(=O)N(C)c2ccccc2)c2c(n1CC(=O)O)CC(C)(C)CC2=O [Example I-49]")
"1 to 10 mg/kg"
>>> reported_measurement("Cc1c(Cc2ccccc2S(=O)(=O)N2CCOCC2)c2c(n1CC(=O)O)CCC2 [Example I-23]")
"1 to 10 mg/kg"
>>> reported_measurement("Cc1c(Cc2ccc(S(=O)(=O)N3CCCC3)cc2)c2c(n1CC(=O)O)CCC2 [Example I-19]")
"< 1 mg/kg"

We now examine a further compound.
Reported ED50 for DK-PGD2-induced systemic eosinophilia, given Cc1c(Cc2ccccc2S(=O)(=O)N2CCOCC2)c2c(n1CC(=O)O)CCCCC2 [Example I-21] ?
< 1 mg/kg

====

target: CRTH2 (Homo sapiens, UniProt Q9Y5Y4); construct: polymorphonuclear cells (0.5 ml; 10^6/ml cells) in PBS containing 0.9 mM CaCl2 and 0.5 mM MgCl2; endogenous in cells; host or cells: polymorphonuclear cells (eosinophils gated by flow cytometry); test: DPBS CD11b Antagonist Assay; assay type: cell-based; conditions: polymorphonuclear cells in PBS, eosinophil CD11b expression, challenge with 15R-Methyl-PGD2 (10 nM)
pIC50: −log10 of the molar value.
Listed below: pIC50 values for each entry.

What value of measured pIC50 is listed for CCOC(=O)Cn1c(C)c(Cc2ccccc2S(=O)(=O)N2CCCC2)c2c1CC(C)(C)CC2=O [Example I-51] ?
6.30 to 7.00

Same for Cc1c(Cc2ccccc2S(=O)(=O)N2CCCC2)c2c(n1CC(=O)OC(C)C)CC(C)(C)CC2=O [Example I-55]
6.30 to 7.00

Same again, this time with Cc1c(Cc2ccc(S(=O)(=O)NC(C)C)cc2)c2c(n1CC(=O)O)CCCC2 [Example I-10]
> 8.30

Do the same for Cc1c(Cc2ccc(S(=O)(=O)N3CCCC3)cc2)c2c(n1CC(=O)O)CC(C)(C)CC2=O [Example I-44] please
< 6.30

// repeat for Cc1c(Cc2cccc(S(=O)(=O)N3CCOCC3)c2)c2c(n1CC(=O)O)CCC(C)(C)C2 [Example I-27] and report
7.00 to 8.30

Query Cc1c(Cc2ccccc2S(=O)(=O)N2CCCC2)c2c(n1CC(N)=O)CC(C)(C)CC2=O [Example I-84] next
< 6.30

Next entry: Cc1c(Cc2ccc(S(=O)(=O)N3CCCC3)cc2)c2c(n1CC(=O)O)CCC(C)(C)C2 [Example I-4]
> 8.30

Moving on to Cc1c(Cc2ccc(S(=O)(=O)NC3CC3)cc2)c2c(n1CC(=O)O)CCCC2 [Example I-8]
> 8.30

Record: CCOC(=O)Cn1c(C)c(Cc2ccccc2S(=O)(=O)N(C)c2ccccc2)c2c1CC(C)(C)CC2=O [Example I-66]
7.00 to 8.30

src = patent US20110312945A1
